In this section, each of the molecules is paired with its reported melting point.

The following molecules have reported results that may help.
Molecule: COc1ccc(CNc2ncnc3c2ncn3C2CCCO2)cc1 (stereo not drawn)
Observed: 182 to 183 °C
--
Molecule: COc1ccc(CNc2ncnc3c2ncn3C2CCCCO2)c(OC)c1OC (stereo not drawn)
Observed: 142 to 143 °C
--
Molecule: COc1ccc(OC)c(CNc2ncnc3c2ncn3C2CCCCO2)c1 (stereo not drawn) [Example 12]
Observed: 150 to 152 °C
--
Molecule: c1coc(CNc2ncnc3c2ncn3C2CCCO2)c1 (stereo not drawn)
Observed: 128 to 129 °C
--
Molecule: COc1ccc(CNc2ncnc3c2ncn3C2CCCCO2)cc1 (stereo not drawn)
Observed: 137 to 138 °C

Prompt: Please look up its melting point: COc1cccc(CNc2ncnc3c2ncn3C2CCCCO2)c1 (stereo not drawn)
Completion: 134 to 135 °C

Prompt: Similarly, COc1ccc(CNc2ncnc3c2ncn3C2CCCO2)c(OC)c1OC (stereo not drawn) [Example 15] ?
Completion: 140 to 141 °C

Prompt: Similarly, COc1ccccc1CNc1ncnc2c1ncn2C1CCCO1 (stereo not drawn) [Example 8] ?
Completion: 97 to 99 °C

Prompt: Entry to check: COc1cccc(CNc2ncnc3c2ncn3C2CCCO2)c1 (stereo not drawn)
Completion: 87 to 88 °C

Prompt: Please do the same for COc1ccc(Nc2ncnc3c2ncn3C2CCCCO2)cc1 (stereo not drawn) [Example 10] as well.
Completion: 150 to 151 °C

Prompt: Likewise for COc1ccccc1CNc1ncnc2c1ncn2C1CCCCO1 (stereo not drawn) ?
Completion: 106 to 108 °C

Prompt: # iterate: COc1ccc(OC)c(CNc2ncnc3c2ncn3C2CCCO2)c1 (stereo not drawn) [Example 13]
Completion: 103 to 104 °C

* * *

test system: Human forskin fibroblasts (cell line BJ); assay: in vitro cytotoxic activity, MTT assay; type: cell-based; settings: 72 hours; BJ fibroblasts at middle passage
Result Type: IC10 (concentration causing 10% decrease in MTT reducing activity)

Compound: COc1cc(OC)c(CNc2ncnc3c2ncn3C2CCCCO2)c(OC)c1 (stereo not drawn)
Observed: >50 µM

Prompt: Any idea what IC10 (concentration causing 10% decrease in MTT reducing activity) was measured for COc1cc(OC)c(OC)cc1CNc1ncnc2c1ncn2C1CCCCO1 (stereo not drawn) ?
Completion: >200 µM

Prompt: What do you have for COc1ccc(CNc2ncnc3c2ncn3C2CCCCO2)c(OC)c1 (stereo not drawn) ?
Completion: >25 µM

Prompt: Consider next the compound COc1ccc(CNc2ncnc3c2ncn3C2CCCCO2)cc1 (stereo not drawn) in the same way.
Completion: >100 µM

Prompt: Can you check COc1cc(CNc2ncnc3c2ncn3C2CCCCO2)cc(OC)c1 (stereo not drawn) next?
Completion: >200 µM

Prompt: Then this compound: c1coc(CNc2ncnc3c2ncn3C2CCCCO2)c1 (stereo not drawn)
Completion: >200 µM

* * *

Hi! I'm sharing some GI50 results obtained with breast carcinoma MCF-7.

Molecule: COc1cccc(CNc2ncnc3c2ncn3C2CCCCO2)c1OC (stereo not shown)
GI50: > 167 µM

Molecule: COc1cc(CNc2ncnc3c2ncn3C2CCCCO2)cc(OC)c1 (stereo not shown)
GI50: > 167 µM

Molecule: COc1ccc(CNc2ncnc3c2ncn3C2CCCO2)cc1 (stereo not shown)
GI50: > 167 µM

Prompt: Find the recorded GI50 belonging to c1coc(CNc2ncnc3c2ncn3C2CCCCO2)c1 (stereo not shown) and report it.
Completion: > 167 µM

Prompt: Cool, now COc1ccc(CNc2ncnc3c2ncn3C2CCCCO2)cc1 (stereo not shown)
Completion: > 167 µM

Prompt: Now the same for c1coc(CNc2ncnc3nc[nH]c23)c1 [Kinetin, N6-furfuryl-adenine]
Completion: > 167 µM

Prompt: // query: COc1cccc(CNc2ncnc3c2ncn3C2CCCO2)c1 (stereo not shown)
Completion: > 167 µM

Each recorded value in this set is attributed to patent US20130072505A1.
